Assay Summary: AUC (0 to 4 hrs) in Sprague-Dawley rat at 4 mg/kg, po
Format: ADME, organism-based
Parameters: time < 4 hr, dose 4 mg/kg, route oral
Condition Set: plasma
Each item that follows carries a reported AUC(0-t) at 4 h.
Measured Parameter: AUC(0-t) at 4 h

C=C[C@@H]1C[C@]1(NC(=O)[C@@H]1C[C@@H]2CN1C(=O)[C@H](C1CCCC1)N[C@H](C)CCCCCCc1cccc3c1CN(C3)C(=O)O2)C(=O)NS(=O)(=O)C1CC1: < 0.1 µM·h
C=C[C@@H]1C[C@]1(NC(=O)[C@@H]1C[C@@H]2CN1C(=O)[C@H](C1CCCCC1)N(C)[C@H](C)CCCCCCc1cccc3c1CN(C3)C(=O)O2)C(=O)NS(=O)(=O)C1CC1: < 0.1 µM·h
